- TESTED_TARGET: METTL3/METTL14 (Homo sapiens, UniProt Q86U44)
- Sequence (Q86U44 whole entry): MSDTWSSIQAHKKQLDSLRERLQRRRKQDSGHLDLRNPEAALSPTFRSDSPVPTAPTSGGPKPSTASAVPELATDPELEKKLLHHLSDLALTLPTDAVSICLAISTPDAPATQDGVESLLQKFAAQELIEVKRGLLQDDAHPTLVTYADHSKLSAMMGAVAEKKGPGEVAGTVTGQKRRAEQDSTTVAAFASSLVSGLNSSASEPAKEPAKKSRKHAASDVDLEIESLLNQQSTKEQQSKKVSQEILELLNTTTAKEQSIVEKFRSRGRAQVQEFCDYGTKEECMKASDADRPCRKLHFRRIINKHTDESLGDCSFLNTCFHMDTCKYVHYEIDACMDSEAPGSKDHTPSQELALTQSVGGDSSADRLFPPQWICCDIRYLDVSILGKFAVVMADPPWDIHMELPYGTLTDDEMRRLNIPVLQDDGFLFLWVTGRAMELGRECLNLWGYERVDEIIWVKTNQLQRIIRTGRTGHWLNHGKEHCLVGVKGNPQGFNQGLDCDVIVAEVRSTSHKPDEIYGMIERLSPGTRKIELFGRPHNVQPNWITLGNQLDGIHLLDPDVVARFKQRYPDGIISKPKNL
- Sequence (Q9HCE5 whole entry, further chain): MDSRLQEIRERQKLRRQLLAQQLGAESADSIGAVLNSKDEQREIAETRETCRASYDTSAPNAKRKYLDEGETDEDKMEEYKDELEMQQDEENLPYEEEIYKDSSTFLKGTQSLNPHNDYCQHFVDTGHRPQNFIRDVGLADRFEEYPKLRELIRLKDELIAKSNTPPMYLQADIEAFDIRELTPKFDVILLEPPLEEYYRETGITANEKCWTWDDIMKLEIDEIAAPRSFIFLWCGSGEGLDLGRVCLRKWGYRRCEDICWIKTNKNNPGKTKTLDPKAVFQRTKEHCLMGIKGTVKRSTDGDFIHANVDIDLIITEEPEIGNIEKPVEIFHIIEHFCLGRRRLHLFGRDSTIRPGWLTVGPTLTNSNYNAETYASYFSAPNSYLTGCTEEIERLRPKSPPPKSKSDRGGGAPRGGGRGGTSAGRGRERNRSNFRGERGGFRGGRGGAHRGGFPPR
OBSERVED_PROPERTY: pIC50
pIC50 is a log-scale quantity: -log10 of the concentration expressed in molar.

Respond only with pIC50 recorded for `O=C(O)c1ccccc1OCCc1cn(-c2ccc(-c3c(Cl)cccc3Cl)cc2)c2ccc(-c3ccc(F)cc3)cc12`
5.31

* * *

- TESTED_TARGET: METTL3/METTL14 (Homo sapiens)
- ASSAY: Inhibition of METTL3/METTL14 (unknown origin) by bioluminescence assay
- Type: protein-complex assay
OBSERVED_PROPERTY: IC50 (µM)
Answer with a number only, understood to be in µM.

Respond only with IC50 recorded for CC1=NN(c2ccc(C)c(C)c2)C(=O)/C1=N\Nc1cccc(-c2cccc(C(=O)O)c2)c1O [ELTROMBOPAG]
3.65

* * *

- TESTED_TARGET: METTL3/METTL14 (Homo sapiens)
- ASSAY: Inhibition of METTL3/METTL14 (unknown origin) using RNA 5'-GGACUGGACUGGACU-3' as substrate incubated for 2 hrs by LC-MS/MS analysis
- Assay type: protein-complex assay
OBSERVED_PROPERTY: IC50 (µM)
Answer with a number only, understood to be in µM.

Check out these entries, answers already filled in.
Recall the reported IC50 of `O=C(O)[C@H]1O[C@@H](Oc2cc3oc(-c4ccc(O)cc4)cc(=O)c3c(O)c2O)[C@H](O)[C@@H](O)[C@@H]1O` on METTL3/METTL14 (Homo sapiens) and write it down.
19.2

Recall the reported IC50 of `O=c1c(O)c(-c2ccc(O)c(O)c2)oc2cc(O)cc(O)c12` on METTL3/METTL14 (Homo sapiens) and write it down.
2.73

As a next step, examine the compound that follows.
Recall the reported IC50 of `O=c1cc(-c2ccc(O)c(O)c2)oc2cc(O)cc(O)c12` on METTL3/METTL14 (Homo sapiens) and write it down.
6.23

The origin of these recorded values is ChEMBL document CHEMBL5338724.
